tested on: SRY-box transcription factor 17 (SOX17) Protein Expression, Deisenroth Lab, SOX17 (gene 64321); test: CCTE_Deisenroth_DEVTOX-GLR_Meso_SOX17: CCTE's DevTox GLR-Meso Assay Evaluation of SRY-box transcription factor 17 (SOX17) Protein Expression, Deisenroth Lab
Records with an inconclusive call do not appear. Active and inactive are the calls of the source. The calls were made as follows: active = hit-call score of the fitted dose curve at least 0.9, where 1 is the maximum; inconclusive = response in the unintended direction; inactive = score below 0.9.
Possible outcomes: class 1 for active, class 0 for inactive

MOLECULE	ANSWER LABEL
CC1=C(/C=C/C(C)=C/C=C/C(C)=C\C(=O)O)C(C)(C)CCC1	class 1
CC/C(=C(/CC)c1ccc(O)cc1)c1ccc(O)cc1	class 1
O=C1NC(=O)C(c2ccccc2)(c2ccccc2)N1	class 1
CC(C)(c1ccc(O)cc1)c1ccc(O)cc1	class 1
O=c1[nH]cc(F)c(=O)[nH]1	class 1
CC1=C(/C=C/C(C)=C/C=C/C(C)=C/C(=O)O)C(C)(C)CCC1	class 1
Nc1cccc2c1C(=O)N(C1CCC(=O)NC1=O)C2=O (stereo not given)	class 0
CCN(CC)CCNC(=O)c1c(C)[nH]c(/C=C2\C(=O)Nc3ccc(F)cc32)c1C	class 1
CS(=O)(=O)OCCCCOS(C)(=O)=O	class 1
Nc1nc2ncc(CNc3ccc(C(=O)N[C@@H](CCC(=O)O)C(=O)O)cc3)nc2c(=O)[nH]1	class 0
